pIC50: −log10 of the molar value.
Collected literature values of pIC50 measured for CTP synthase 1 (Homo sapiens, UniProt P17812).

The following compounds have reported results that may help.
Param item: CCOc1cncc(-c2ccc(C(=O)NCc3cc(NS(=O)(=O)CC(F)(F)F)ccn3)cc2)n1 ; param system: CTP synthase 1 (Homo sapiens, UniProt P17812); output pIC50: > 7.00

Param item: CCOc1cncc(-n2cc(C(=O)NCc3cc(NS(=O)(=O)C4CC4)ccn3)cn2)n1 ; param system: CTP synthase 1 (Homo sapiens, UniProt P17812); output pIC50: 6.00 to 7.00

Param item: O=C(NCc1csc(NS(=O)(=O)C2CC2)n1)c1ccc(-c2cncc(C(F)(F)F)n2)cc1F ; param system: CTP synthase 1 (Homo sapiens, UniProt P17812); output pIC50: > 7.00

Param item: CCOc1cncc(-c2ccc(NC(=O)C3(c4ccnc(NS(=O)(=O)CC5CC5)n4)CCOCC3)nc2)n1 ; param system: CTP synthase 1 (Homo sapiens, UniProt P17812); output pIC50: 6.00 to 7.00

Param item: CCOc1cncc(-c2ccc(NC(=O)C3(c4ccnc(NS(=O)(=O)C5CC5)n4)CCN(C(C)=O)CC3)nc2)n1 ; param system: CTP synthase 1 (Homo sapiens, UniProt P17812); output pIC50: ≥ 7.00

New cases:
Param item: CCOc1cncc(-c2cnc(C(=O)NC(C)(C)c3csc(NS(=O)(=O)C4CC4)n3)c(F)c2)n1 ; param system: CTP synthase 1 (Homo sapiens, UniProt P17812); output pIC50: 6.00 to 7.00

Param item: CCOc1cncc(-c2ccc(NC(=O)C3(c4ccnc(NS(C)(=O)=O)n4)CCOCC3)nc2)n1 ; param system: CTP synthase 1 (Homo sapiens, UniProt P17812); output pIC50: ≥ 7.00

Param item: O=C(NC1(c2csc(NS(=O)(=O)C3CC3)n2)CC1)c1ccc2ccncc2c1 ; param system: CTP synthase 1 (Homo sapiens, UniProt P17812); output pIC50: ≤ 6.00

Param item: CCOc1cncc(-c2cnc(C(=O)N[C@@H](CN3CCOCC3)c3cccc(NS(=O)(=O)C(F)F)c3)s2)n1 ; param system: CTP synthase 1 (Homo sapiens, UniProt P17812); output pIC50: > 7.00

Param item: CCOc1cncc(-c2ccc(C(=O)NCc3cc(NS(=O)(=O)C4CC4)ccn3)c(=O)[nH]2)n1 ; param system: CTP synthase 1 (Homo sapiens, UniProt P17812); output pIC50: 6.00 to 7.00

====

Collected literature values of IC50 measured for CTP synthase 1 (Homo sapiens, UniProt P17812).

Param item: CCOc1cncc(-c2cnc(C(=O)N[C@](C)(CCOC)c3cc(NS(=O)(=O)C4CC4)ccn3)s2)n1 ; param system: CTP synthase 1 (Homo sapiens, UniProt P17812); output IC50: 100 to 1000 nM

Param item: CCOc1cncc(-c2ccc(NC(=O)C3(c4ccnc(NS(=O)(=O)CC)n4)CCOCC3)nc2)n1 ; param system: CTP synthase 1 (Homo sapiens, UniProt P17812); output IC50: ≤ 100 nM

Param item: CCOc1cncc(-c2ccc(C(=O)N3CCC[C@@H]3c3cc(NS(=O)(=O)C4CC4)ccn3)c(F)c2)n1 ; param system: CTP synthase 1 (Homo sapiens, UniProt P17812); output IC50: 100 to 1000 nM

Param item: O=C(NCc1csc(NS(=O)(=O)C2CC2)n1)c1ccc(-c2cncc(C(F)(F)F)n2)cc1 ; param system: CTP synthase 1 (Homo sapiens, UniProt P17812); output IC50: < 100 nM

Param item: CCOc1cncc(-c2cnc(C(=O)N3CCCC3c3cncc(NS(=O)(=O)C4CC4)c3)s2)n1 (stereo not shown) ; param system: CTP synthase 1 (Homo sapiens, UniProt P17812); output IC50: < 100 nM

New cases:
Param item: CCOc1cncc(-c2ccc(C(=O)N3CCC[C@@H]3c3cc(NS(=O)(=O)C4CC4)ccn3)nc2)n1 ; param system: CTP synthase 1 (Homo sapiens, UniProt P17812); output IC50: ≥ 1000 nM

Param item: CCOc1cncc(-c2cnc(C(=O)N[C@H](CN3CC(F)C3)c3cc(NS(=O)(=O)C4CC4)ccn3)s2)n1 (single isomer, unassigned) ; param system: CTP synthase 1 (Homo sapiens, UniProt P17812); output IC50: < 100 nM
